test: yeast display, Sf9 membrane polyspecificity reagent, FACS + sequencing; frameworks hold sequencing errors
quantity kind: polyreactivity (PSR sort gate)

| primary sequence | reported value |
| --- | --- |
| QVQLVESGGGLVQAGGSLRLSCAASGRTFYLNAMGWYRQAPGKVRELVAAIRFSGGSTYYADSVKGRFTISRDNAKNTVYLQMNSLKPEDTAVYYCNAGPYHSLYPTVSEYGYWGQGTQVTVSS | low polyreactivity |
| QHQLGESGGGLVQAGGRLRLSCAASGRIFHVSAMGWYREAPGKERELVAAISSGDRTYYADSGKGRFIISRDNAKNSVYLQLNSLKPEDTAVYYCWRYPAAESNYWGQGTQVTVSS | low polyreactivity |
| QVQLVESGGGLVQAGGSLRLSCAASGRIFGSYAMGWYRQAPGKERELVAAITRSGGSTYYADSVKGRFTISRDNAKNTVYLQMNSLKPEDTAVYYCAAYFRFSGSAKFGYWGQGTQVTVSS | high polyreactivity |
| QVQLVESGGGLVQAGGSLRLSCAASGSTFFGYAMGWYRQAPGKERELVAAIRYNGGHTYYADSVKGRFTISRDYAKNTVYLQMNRLKPEDTAVYYCAVDVVTSYYELTGSFNYWGQGTQVTVSS | low polyreactivity |

Fill in polyreactivity (PSR sort gate) for each of the 5 sequences listed.
1. QVQLVESGGGLVQAGGSLRLSCAASGSIFAKYPMGWYRQAPGKERELVAAISSGGSTYYADSVKGRFTISRDNAKNTVYLQMNSLKPEDTAVYYCNKPYGKETRYTFNVWYEYNYWGQGTQVTVSS
2. QDQLVDSGGGLVQAGASLRISSATSGRILWEYAMGSYRQAPGKERQLVAAITISDGSTYYADSVKGRFTISRDNAKNTVYLQMNSLNPEDTEVYYCAADSYDYTPAYLFSYKYYYWGQGTQVTVSS
3. QVQLVESGGGLVQAGGSLRLSCAASGSIFGYNAMGWYRQAPGIERELVAAISSGGNTYYADSVKGRFTISRDNAKNTVYLQMNSLKPEDTAVYYCAVDYYYGFDWGQGTQVTVSS
4. QVQLVESGGGLVQAGGSLRLSCAASGRTFTTYAMGWYRQAPGKERELVAAITSGGSTNYADSVKGRFTISRDNAKNTVYLQMNSLKPEDTAVYYCAARFRVYTYSQRHWREFGYWGQGTQVTVSS
5. QVQLVESGGGLVQAGGSLRLSCAASGRTFLYYAMGWYRQAPGKERELVASISTGGSTNYADSVKGRFTISRDNAKNTVYLQMNSLKPEDTAVYYCATEYPYSYFSIAHYHHGYWGQGTQVTVSS

low polyreactivity
low polyreactivity
low polyreactivity
high polyreactivity
low polyreactivity

Fill in polyreactivity (PSR sort gate) for each of the 8 sequences listed.
1. QVQLVESGGGLVQAGGSLRLICAASGSTFGYYTMGWYRQAPGKERELVAAISSGGSRTNYADSVKGRFTISRDNAKNTVYLQMNSLIPEDTAVYYCAAGPVSYVRYGSEYDYWGQGTQVTVSS
2. QVQLVESGGGLVQAGGSLRLSCAASGSTFGLYAMGWYIQAPGKERELVAAISSRGSRTYYADSVKGRFTISRDNAKNTVYLQLNSLIPEDTAVYYCNALYASSVRHKVTYDYWGQGTQVTVSS
3. QVQLVESGGGLVQAGGSLRLICAASGSIFFSYAMGWYRQAPGKERELVAAIDYSGGGTYYADSVMGRFTISRDNAKNTVYLQMNSLKPEDTAVYYCNSDTEVWADTFISYRALNYWGQGTQVTVSS
4. QVQLVESGGGLVQAGGSLRLSCAASGLTITQYVMGWYRQAPGKERDLDAAISWGGTSTYYADSVKGRFTISRDHAKNTVYLQMNSLKPEDTAVYYCNARSVYLSFWGFDYWGQGTQVTVSS
5. QVQLVESGGGLVQAGGSLRLICAASGFTIWFNAMGWYRQAPWKERDLVATIRGSGGTTYYAYSVKGRFTISRDNAKNTVYLQMNSLKPEDTAVYYCAAEGSFRKFDYCGQGTQVTVSS
6. QVQLVESGGGLVQAGGSLRLSCAASGSIFPAYAMGWYRQAPGKERELVAAITDRCGSTYYADSVKGRFTISRDNANNTVSLQMNSLKPEDTYWGQGTQVTVSS
7. QVQLVESGGGLVQAGGSLRLSCAASGITLVRYAMGWNRKAPGKEREFVASITSGASTNYADSVKGRFTISRYNAKNTVYLQMNSLKPDDTAVYYCAAGPPSGGWWGGWYEYWGQGTQVTVSS
8. QVQLVESGGGLVQAGGSLRLSCAASGRTIDSYAMGWYRQAPGKERELVAAISKSGGRTYYADSVKGRFTISRDNAKNTVYLQMNSLKPEDTAVYYCNAQRVAYWRVAYDYWGQGTQVTVSS

1: high polyreactivity; 2: high polyreactivity; 3: low polyreactivity; 4: low polyreactivity; 5: low polyreactivity; 6: low polyreactivity; 7: high polyreactivity; 8: high polyreactivity

Fill in polyreactivity (PSR sort gate) for each of the 3 sequences listed.
1. QVQLVESGGGLVQAGGRLRLRCAASGFILDTYAMGGYRQAAGNERELVAGITVRGGSTYYADSVKGRFTISRDNAKNTVYLQMNSLKPEDTAVYYCNAAQDRFGYRRSGYWYDYWGQGTQVTVSS
2. QVQLVESGGGLVQAGGSLRLSCAASGSIDGYAMGWYRQAPGKERELVAAISKGGGNTYYADSVKGRFTISRDNAKNTVYLQMNSLKPEDTAVYYCAARRQIIWGQGTQVTVSS
3. QVQLVESGGGLVQAGGILRLSCASSGSTFGYNVMGWYRQAPGKERELVAAISSSGGSTYYADSVKGRFTISRDTAKNTVYLQMNSLNPEDTAVYYGAADVGFRWYRYTAGPLEYDYWGQGTQVTVSS

1. low polyreactivity
2. high polyreactivity
3. high polyreactivity

In plain terms, QVQLVESGGGLVQAGGSLRLSCAASGIFVYYAMGWYRQSPGKERELVAAISSSGGSTYYADSVKGRFTISRDNAKNTVYLQMNSLKREDTAVYYCNTLAYPSDRFEYWGQGTQVTVSS has a documented polyreactivity (PSR sort gate) of high polyreactivity

Taken from the nanobody polyreactivity screen of Harvey et al. (2022).
